The origin of these recorded values is patent US20050032873A1.

tested_system: serotonin transporter (Rattus norvegicus, UniProt P31652)
Construct: displace ^3H-paroxetine from male rat cortical membranes; from tissue; host or cells: male rat cortical membranes
Sequence (P31652 whole entry): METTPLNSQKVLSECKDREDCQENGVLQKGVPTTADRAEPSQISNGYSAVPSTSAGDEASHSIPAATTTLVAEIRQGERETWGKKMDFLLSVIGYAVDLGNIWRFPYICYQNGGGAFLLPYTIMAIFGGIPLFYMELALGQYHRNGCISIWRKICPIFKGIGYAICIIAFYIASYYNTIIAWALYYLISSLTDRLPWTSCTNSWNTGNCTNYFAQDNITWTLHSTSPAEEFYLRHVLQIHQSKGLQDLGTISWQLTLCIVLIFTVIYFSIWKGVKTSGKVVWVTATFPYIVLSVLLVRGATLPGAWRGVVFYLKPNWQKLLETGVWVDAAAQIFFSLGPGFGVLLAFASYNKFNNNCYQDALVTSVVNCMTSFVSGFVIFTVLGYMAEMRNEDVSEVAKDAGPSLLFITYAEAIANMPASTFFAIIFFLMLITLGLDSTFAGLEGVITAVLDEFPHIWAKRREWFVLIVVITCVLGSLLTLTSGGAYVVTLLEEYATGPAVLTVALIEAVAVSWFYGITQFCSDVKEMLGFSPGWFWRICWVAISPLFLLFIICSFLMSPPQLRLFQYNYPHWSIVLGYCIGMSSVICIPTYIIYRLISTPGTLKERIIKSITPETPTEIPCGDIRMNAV
protocol: 5-HT transporter affinity: displacement of 3H-paroxetine from male rat cortical membranes
Assay type: binding
condition_parameters: displacement of 3H-paroxetine; male rat cortical membranes; read-out: 5-HT Transporter Affinity Ki
pKi: −log10 of the molar value.
value_type: pKi

# annotated cases, reported pKi shown
{"molecule": "O=C(NC1CCCCC1)c1ccc(F)c2c1CC(N(CCCc1c[nH]c3ccc(F)cc13)C1CCC1)CO2 (stereo not shown)", "pKi": 7.70}
{"molecule": "COc1cccc2c1CC(N(CCCc1c[nH]c3ccccc13)C1CCC1)CO2 (stereo not shown)", "pKi": 7.33}

P = NC(=O)c1cccc2c1C[C@H](NCCCc1c[nH]c3ccc(F)cc13)CO2 [Compound 133a]
Q = NC(=O)c1ccc(F)c2c1OCC(N(CCCc1c[nH]c3ccc(F)cc13)C1CCC1)C2 (stereo not shown)
// query When their pKi values are compared, which is larger, P or Q ? Answer by quoting the chosen item's label.
// result P

----------
tested_system: 5-HT1A receptor (Homo sapiens)
protocol: cAMP accumulation assay, 5-HT1A function
Format: cell-based
condition_parameters: cells marked IC50 (antagonist); read-out: 5-HT1A Function cAMP IC50
pIC50: −log10 of the molar value.
value_type: pIC50

{"compound": "CC(Cc1c[nH]c2ccc(F)cc12)CN(CC1CC1)[C@H]1COc2c(F)ccc(C(N)=O)c2C1 (single isomer, unassigned) [Compound 155b]", "pIC50": 6.07}
{"compound": "COc1ccc2[nH]cc(CCCN(CC3CC3)C3COc4c(F)ccc(C(N)=O)c4C3)c2c1 (stereo not drawn)", "pIC50": 7.34}
{"compound": "N#Cc1ccc2[nH]cc(CCCN(C3CCC3)[C@H]3COc4c(F)ccc(C(N)=O)c4C3)c2c1 [Compound 97b]", "pIC50": 7.15}
{"compound": "CCN(CC1CCc2[nH]c3ccc(F)cc3c2C1)[C@H]1COc2c(F)ccc(C(N)=O)c2C1 (single isomer, unassigned; (+)) [Compound 176b]", "pIC50": 6.17}
{"compound": "CCCN(CC1CCc2[nH]c3ccc(F)cc3c2C1)[C@H]1COc2c(F)ccc(C(N)=O)c2C1 (single isomer, unassigned; (-)) [Compound 177a]", "pIC50": 6.08}

a = CCCCN(CCCc1coc2c(OC)cccc12)C1COc2c(F)ccc(C(N)=O)c2C1 (stereo not drawn)
b = C[C@H](CCN(C1CCC1)[C@@H]1COc2c(F)ccc(C(N)=O)c2C1)c1c[nH]c2ccc(F)cc12 [Compound 152b]
c = COc1cccc2c(CCCCN(CC3CC3)C3COc4c(F)ccc(C(N)=O)c4C3)coc12 (stereo not drawn)
d = CNC(=O)c1ccc(F)c2c1CC(N(CCCCc1c[nH]c3ccc(F)cc13)CC1CC1)CO2 (stereo not drawn)
// query Rank the items in ascending order with respect to pIC50. // format: requested-order list of labels
// result b, a, c, d
(b: 6.14, a: 6.52, c: 6.99, d: 7.23)

----------
tested_system: 5-HT1A receptor (Homo sapiens, UniProt P08908)
Sequence (P08908 1-422): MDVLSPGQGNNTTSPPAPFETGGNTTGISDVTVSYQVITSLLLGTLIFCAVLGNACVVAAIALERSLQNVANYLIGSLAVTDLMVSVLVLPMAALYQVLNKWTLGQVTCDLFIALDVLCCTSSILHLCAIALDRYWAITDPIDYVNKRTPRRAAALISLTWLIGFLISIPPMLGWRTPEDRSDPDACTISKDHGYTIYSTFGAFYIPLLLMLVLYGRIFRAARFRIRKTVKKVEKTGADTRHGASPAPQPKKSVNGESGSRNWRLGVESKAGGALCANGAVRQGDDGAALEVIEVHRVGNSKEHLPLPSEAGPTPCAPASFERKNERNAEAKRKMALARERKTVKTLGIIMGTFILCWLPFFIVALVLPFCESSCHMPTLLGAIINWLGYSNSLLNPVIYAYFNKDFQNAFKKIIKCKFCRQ
protocol: cAMP accumulation assay, 5-HT1A function
Type: cell-based
condition_parameters: in brackets after EC50 or IC50; read-out: 5-HT1A Function cAMP (Emax)
value_type: Emax (%)

# annotated cases, reported Emax shown
{"molecule": "COc1cccc2c(CCCCNC3COc4c(F)ccc(C(N)=O)c4C3)coc12 (stereo not shown)", "value_type": "Emax", "unit_tag": "%", "endpoint_result": 0}
{"molecule": "CCCN(CCCc1c[nH]c2ccc(F)cc12)C1CCc2cccc(OC)c2C1 (stereo not shown)", "value_type": "Emax", "unit_tag": "%", "endpoint_result": 91.5}
{"molecule": "CCN(CCCc1c[nH]c2ccc(F)cc12)C1COc2cccc(OC)c2C1 (stereo not shown)", "value_type": "Emax", "unit_tag": "%", "endpoint_result": 96}
{"molecule": "CCCN(C1COc2cccc(OC)c2C1)[C@H]1CC[C@@H](c2c[nH]c3ccc(F)cc32)CC1 (relative stereo)", "value_type": "Emax", "unit_tag": "%", "endpoint_result": 65}

P = NC(=O)c1cccc2c1CC(NCCCc1c[nH]c3ccc(F)cc13)CO2 (stereo not shown)
Q = C[C@H](CCN(C1CCC1)[C@H]1COc2c(F)ccc(C(N)=O)c2C1)c1c[nH]c2ccc(F)cc12 [Compound 152a]
// query Consider entries P and Q . Which has the numerically lower Emax? Answer by quoting the chosen item's label.
// result Q
